Where do these numbers come from? They come from patent US9969747B2.

- PROTOCOL_DETAILS: Oral pharmacokinetics in male beagle dogs, crossover, suspension in 0.5% MC
- Assay type: in vivo
- APPLIED_CONDITIONS: male beagle dog, 2 mg/Kg single oral dose, 0.5 h; 2 mg/kg
Below, each of the compounds is paired with its reported Plasma concentration, Mean value.
The answer consists of two parts: a number and, after it, its unit.

Cc1noc2c1-c1ccccc1C(c1ccc(Cl)cc1)=N[C@H]2CC(N)=O [monohydrate Form A]
330 ng/mL

Query compound follows.
Look up Plasma concentration, Mean for this compound: Cc1noc2c1-c1ccccc1C(c1ccc(Cl)cc1)=N[C@H]2CC(N)=O [amorphous form] 471 ng/mL

---

- PROTOCOL_DETAILS: Oral pharmacokinetics in male beagle dogs, crossover, suspension in 0.5% MC
- Format: in vivo
- APPLIED_CONDITIONS: male beagle dog, 2 mg/Kg single oral dose, 1 h; 2 mg/kg
Below, each of the compounds is paired with its reported Plasma concentration, Mean value.
Hi! Could you send only the number? It should be in ng/mL, unit omitted.

Cc1noc2c1-c1ccccc1C(c1ccc(Cl)cc1)=N[C@H]2CC(N)=O [amorphous form]
658

Query compound follows.
Look up Plasma concentration, Mean for this compound: Cc1noc2c1-c1ccccc1C(c1ccc(Cl)cc1)=N[C@H]2CC(N)=O [monohydrate Form A] 522

---

- PROTOCOL_DETAILS: Oral pharmacokinetics in male beagle dogs, crossover, suspension in 0.5% MC
- Assay type: in vivo
- APPLIED_CONDITIONS: male beagle dog, 2 mg/Kg single oral dose, 2 h; 2 mg/kg
Below, each of the molecules is paired with its reported Plasma concentration, Mean value.
Hi! Could you send only the number? It should be in ng/mL, unit omitted.

Cc1noc2c1-c1ccccc1C(c1ccc(Cl)cc1)=N[C@H]2CC(N)=O [monohydrate Form A]
512

Look up Plasma concentration, Mean for this molecule: Cc1noc2c1-c1ccccc1C(c1ccc(Cl)cc1)=N[C@H]2CC(N)=O [amorphous form] 577
